Test system: Madurella mycetomatis MM55
experiment-summary: percent growth relative to solvent control; higher = less inhibition, active = 20 or less
experimental-conditions: 100 µM; 7 days
metric-name: percent growth

Some solved entries appear below for comparison.
INSERT INTO assay_data (molecule, metric_name, result) VALUES
  ('Cc1cc(O)nc(-n2nc(C)cc2C)n1', 'percent growth', '66.4% (inactive)'),
  ('CCOc1ccc(OCC(=O)Nc2cc(C)cc(C)c2)cc1', 'percent growth', '89.4% (inactive)'),
  ('CCOC(=O)c1c(NC(=O)c2c(F)c(F)c(F)c(F)c2F)sc(C(N)=O)c1C', 'percent growth', '1.26% (active)'),
  ('CCOC(=O)c1noc(N)c1-c1ccccc1', 'percent growth', '87.2% (inactive)'),
  ('Cc1nc(-c2ccccn2)nc(N(C)CCc2ccccc2)c1Cl', 'percent growth', '2.82% (active)');

Q: Output measured percent growth for this item: CC(=O)NC[C@H]1CN(c2ccc(N3CCSCC3)c(F)c2)C(=O)O1
Result: 94.5% (inactive)

Q: Output measured percent growth for this item: CC1COC2(CCN(c3nc(=O)c4cc(C(F)(F)F)cc([N+](=O)[O-])c4s3)CC2)O1 (stereo unspecified)
Result: 79.4% (inactive)

Q: Output measured percent growth for this item: COc1ccc(-c2cncc3ccc(C(=O)NCCCn4ccnc4)nc23)cc1
Result: 109% (inactive)

Q: Output measured percent growth for this item: CC(=O)NCC1CN(c2ccc(-c3ccc(CO)cc3)c(F)c2)C(=O)O1 (stereo unspecified)
Result: 112% (inactive)

Q: Output measured percent growth for this item: Clc1ccc(-n2cc(COc3ccnc4ccccc34)nn2)cc1
Result: 63% (inactive)

Q: Output measured percent growth for this item: COc1ccc(Cl)cc1NC(=O)CN(C)C(=O)c1cnn(-c2ccccc2)n1
Result: 30.8% (inactive)

# credit: the supplement of paper PMC5940239
